- Test system: Escherichia coli
- test_details: Antibacterial activity against Escherichia coli J53 by Etest
- Assay type: functional
value_type: MIC
Please give the number followed by its unit.

CN(C)[C@@H]1C(O)=C(C(N)=O)C(=O)[C@@]2(O)C(O)=C3C(=O)c4c(O)cccc4[C@@](C)(O)[C@H]3C[C@@H]12 [TETRACYCLINE] :: 2 µg/mL
CO/N=C(\C(=O)N[C@@H]1C(=O)N2C(C(=O)O)=C(CSc3nc(=O)c(O)nn3C)CS[C@H]12)c1csc(N)n1 [CEFTRIAXONE] :: 0.19 µg/mL
CO/N=C(\C(=O)N[C@@H]1C(=O)N2C(C(=O)[O-])=C(C[N+]3(C)CCCC3)CS[C@H]12)c1csc(N)n1 [CEFEPIME] :: 0.094 µg/mL

Escherichia coli / MIC / CO/N=C(\C(=O)N[C@@H]1C(=O)N2C(C(=O)O)=C(COC(C)=O)CS[C@H]12)c1csc(N)n1 [CEFOTAXIME] : value?
0.064 µg/mL

Escherichia coli / MIC / CO[C@@]1(NC(=O)Cc2cccs2)C(=O)N2C(C(=O)O)=C(COC(N)=O)CS[C@@H]21 [CEFOXITIN] : value?
4 µg/mL

Escherichia coli / MIC / O=C(N[C@H](CO)[C@H](O)c1ccc([N+](=O)[O-])cc1)C(Cl)Cl [CHLORAMPHENICOL] : value?
4 µg/mL

Escherichia coli / MIC / CC(C)(O/N=C(\C(=O)N[C@@H]1C(=O)N2C(C(=O)[O-])=C(C[n+]3ccccc3)CS[C@H]12)c1csc(N)n1)C(=O)O [CEFTAZIDIME] : value?
0.19 µg/mL
